Origin of the recorded values: patent US11351178B2

# Study System: recombinant human HDAC6 (Homo sapiens)
# Protocol: Enzymatic screening on recombinant human HDAC6
# Format: biochemical
# Test Conditions: Table 2; read-out: HDAC6 IC50
Provide the recorded IC50 for the entries that follow.
Numbers only, in µM.

Sample records with IC50:
Mol	Unit Of Measure	Test Value
CN(C)S(=O)(=O)c1cccc(-c2nnn(Cc3ccc(C(=O)NO)cc3)n2)c1	µM	0.007
O=C(NO)c1cc(F)c(Sc2nnc(-c3ccncc3)n2Cc2ccco2)c(F)c1	µM	0.02
Cn1c(Sc2c(F)cc(C(=O)NO)cc2F)nnc1-c1cc(-c2cccs2)n(-c2ccccc2)n1	µM	0.04

The record that follows has no IC50 shown yet.
Consider "O=C(NO)c1cc(F)c(Sc2nnc(-c3ccccn3)n2Cc2ccco2)c(F)c1" . Its measured IC50 is 0.014

###

Provide the recorded pIC50 for the entries that follow.
# Study System: recombinant human HDAC3 (Homo sapiens)
# Sequence (O15379 whole entry): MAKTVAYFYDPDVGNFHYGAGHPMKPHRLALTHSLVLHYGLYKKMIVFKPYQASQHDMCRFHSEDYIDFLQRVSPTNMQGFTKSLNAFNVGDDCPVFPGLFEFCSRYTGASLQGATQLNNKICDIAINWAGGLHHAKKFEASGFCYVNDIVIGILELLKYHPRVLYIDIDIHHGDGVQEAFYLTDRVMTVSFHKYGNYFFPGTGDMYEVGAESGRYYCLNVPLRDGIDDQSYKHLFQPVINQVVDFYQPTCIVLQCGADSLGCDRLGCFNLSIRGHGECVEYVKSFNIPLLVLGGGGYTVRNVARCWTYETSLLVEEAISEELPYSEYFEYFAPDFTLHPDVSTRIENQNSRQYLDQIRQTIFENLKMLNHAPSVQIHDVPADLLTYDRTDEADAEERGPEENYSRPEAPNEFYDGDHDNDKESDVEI
# Sequence (Q9Y618 395-489 partner limits assumed): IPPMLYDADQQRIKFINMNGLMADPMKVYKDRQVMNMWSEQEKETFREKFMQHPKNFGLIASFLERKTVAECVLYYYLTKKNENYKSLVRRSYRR
# Protocol: Enzymatic screening on recombinant human HDAC3
# Test Conditions: Table 3
Numbers only, as −log10 of the molar value.

Sample records with pIC50:
Mol	pIC50
Cn1c(Sc2c(F)cc(C(=O)NO)cc2F)nnc1-c1cccs1	5.55
Cn1c(Sc2ccc(C(=O)NO)cc2)nnc1-c1cccs1	6.31
O=C(NO)c1cc(F)c(Cn2nnnc2-c2cccs2)c(F)c1	5.20
Cn1c(Sc2c(F)cc(C(=O)NO)cc2F)nnc1C(c1ccccc1)c1ccccc1	5.05

The record that follows has no pIC50 shown yet.
Consider "Nn1c(Sc2ccc(C(=O)NO)cc2)nnc1-c1ccc(OC(F)F)cc1" . Its measured pIC50 is 6.43

###

Provide the recorded IC50 for the entries that follow.
# Study System: recombinant human HDAC6 (Homo sapiens, UniProt Q9UBN7)
# Sequence (Q9UBN7 1-1215): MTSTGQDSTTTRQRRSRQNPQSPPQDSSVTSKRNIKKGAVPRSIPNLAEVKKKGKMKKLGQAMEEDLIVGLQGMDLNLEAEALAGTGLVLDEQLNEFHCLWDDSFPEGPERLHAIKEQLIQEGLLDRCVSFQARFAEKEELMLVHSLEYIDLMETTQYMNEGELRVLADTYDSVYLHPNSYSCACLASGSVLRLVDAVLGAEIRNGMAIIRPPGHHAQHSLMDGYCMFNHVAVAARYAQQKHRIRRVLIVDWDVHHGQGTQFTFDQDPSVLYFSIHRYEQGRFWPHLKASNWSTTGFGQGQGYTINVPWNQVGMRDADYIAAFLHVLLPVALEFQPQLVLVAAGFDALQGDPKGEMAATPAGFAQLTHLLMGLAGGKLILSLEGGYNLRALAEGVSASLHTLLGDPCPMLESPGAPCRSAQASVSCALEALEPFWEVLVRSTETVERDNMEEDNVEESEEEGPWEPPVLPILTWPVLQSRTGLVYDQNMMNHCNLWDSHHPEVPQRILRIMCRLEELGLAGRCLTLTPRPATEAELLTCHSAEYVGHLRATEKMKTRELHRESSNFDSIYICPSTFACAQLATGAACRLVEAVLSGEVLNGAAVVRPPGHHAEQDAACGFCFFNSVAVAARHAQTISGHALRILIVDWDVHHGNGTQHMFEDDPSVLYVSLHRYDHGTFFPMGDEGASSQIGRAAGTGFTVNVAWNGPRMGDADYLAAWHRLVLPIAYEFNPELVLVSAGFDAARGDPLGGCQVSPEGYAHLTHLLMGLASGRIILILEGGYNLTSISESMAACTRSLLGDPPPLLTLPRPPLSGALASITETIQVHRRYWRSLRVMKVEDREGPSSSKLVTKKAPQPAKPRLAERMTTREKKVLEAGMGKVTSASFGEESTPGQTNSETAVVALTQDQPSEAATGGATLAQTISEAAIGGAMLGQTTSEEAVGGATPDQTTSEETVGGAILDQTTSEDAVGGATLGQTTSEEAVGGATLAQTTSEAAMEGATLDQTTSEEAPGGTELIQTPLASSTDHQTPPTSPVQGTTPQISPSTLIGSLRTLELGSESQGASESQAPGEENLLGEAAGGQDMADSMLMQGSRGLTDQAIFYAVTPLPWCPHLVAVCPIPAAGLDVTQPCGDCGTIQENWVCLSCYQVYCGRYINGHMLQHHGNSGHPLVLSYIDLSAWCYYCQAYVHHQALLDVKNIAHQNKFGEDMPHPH
# Protocol: Enzymatic screening on recombinant human HDAC6
# Type: biochemical
# Test Conditions: Table 2; read-out: HDAC6 IC50
Give bare numbers, in nM.

Mol	IC50 [nM]
O=C(NO)c1cc(F)c(Cc2nnc(-c3cncc(N4CCOCC4)c3)s2)c(F)c1	10
O=C(NO)c1ccc(Cn2nnc(-c3ccc(C(F)(F)F)cn3)n2)cc1	86
Nc1ccc(-c2nnnn2Cc2c(F)cc(C(=O)NO)cc2F)cc1	8
Cn1c(Sc2c(F)cc(C(=O)NO)cc2F)nnc1-c1cccc(S(=O)(=O)N2CCN(Cc3ccccc3)CC2)c1	22
O=C(NO)c1cc(F)c(Cn2nnc(-c3scc4c3OCCO4)n2)c(F)c1	8

Report IC50 for each item below.
1. O=C(NO)c1ccc(Sc2nnc(Cc3ccccc3)n2-c2ccc(F)cc2)cc1
2. CN(C)S(=O)(=O)c1cccc(-c2nnc(Cc3ccc(C(=O)NO)cc3)o2)c1
3. O=C(NO)c1ccc(Cc2nnc(-c3cccc(S(=O)(=O)N4CCOCC4)c3)o2)cc1
4. O=C(NO)c1ccc(Cn2nnc(-c3ccco3)n2)cc1
5. O=C(NO)c1cc(F)c(Cc2nnc(-c3ccccc3)s2)c(F)c1
6. O=C(NO)c1cc(F)c(Sc2nnc(-c3cncc(Br)c3)s2)c(F)c1

1: 77; 2: 11; 3: 13; 4: 4; 5: 5; 6: 53

Report IC50 for each item below.
1. O=C(NO)c1ccc(Cn2nnc(-c3ccc(Cl)cc3)n2)cc1
2. O=C(NO)c1cc(F)c(Cc2noc(-c3ccc(CN4CCCC4)o3)n2)c(F)c1
3. Cn1c(Sc2c(F)cc(C(=O)NO)cc2F)nnc1-c1ccc2ccccc2n1
4. Cn1c(Sc2c(F)cc(C(=O)NO)cc2F)nnc1-c1cccnn1

[14, 9, 12, 11]

Report IC50 for each item below.
1. Cn1c(Sc2c(F)cc(C(=O)NO)cc2F)nnc1-c1ccc(CN2CCCCCC2)cc1
2. CN(C)c1ccc(-c2nnc(Sc3ccc(C(=O)NO)cc3)n2C)cc1
3. Cn1c(Sc2c(F)cc(C(=O)NO)cc2F)nnc1-c1cccc(N2CC[N+](C)([O-])CC2)c1

7
8
256

###

# Study System: HDAC2 (Homo sapiens, UniProt Q92769)
# Sequence (Q92769 whole entry): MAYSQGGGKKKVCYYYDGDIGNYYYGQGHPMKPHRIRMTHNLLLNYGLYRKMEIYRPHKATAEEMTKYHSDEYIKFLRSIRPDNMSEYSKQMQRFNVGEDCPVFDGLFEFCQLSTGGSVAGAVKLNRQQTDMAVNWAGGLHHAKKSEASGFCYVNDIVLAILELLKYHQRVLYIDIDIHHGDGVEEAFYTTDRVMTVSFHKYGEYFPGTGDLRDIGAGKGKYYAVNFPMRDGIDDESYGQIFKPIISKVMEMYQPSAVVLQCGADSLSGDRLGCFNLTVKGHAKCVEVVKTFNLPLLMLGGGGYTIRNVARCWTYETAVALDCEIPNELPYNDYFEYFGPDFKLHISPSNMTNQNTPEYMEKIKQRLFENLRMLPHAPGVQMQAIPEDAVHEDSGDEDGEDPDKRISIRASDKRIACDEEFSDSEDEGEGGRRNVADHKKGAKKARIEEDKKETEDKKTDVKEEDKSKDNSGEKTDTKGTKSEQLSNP
Entries whose IC50 is below 4 µM take MET; entries at or above 4 µM take NOT MET.

Compound	Category Label
O=C(NO)c1cc(F)c(Cn2nnc(-c3ccccn3)n2)c(F)c1 [comp. 6]	NOT MET

// switching to the query compound
Criterion: IC50 strictly below 4 µM. Is it met by Cn1c(Sc2c(F)cc(C(=O)NO)cc2F)nnc1C(c1ccccc1)c1ccccc1 [comp. 98] ?
NOT MET

###

# Protocol: Stability in rat plasma
# Format: in vitro ADME
# Test Conditions: after 4 hours, 37° C.
residual percentage in rat plasma vs 90%: at or above is true (1), below is false (0).

Molecule	Category Label
Cn1c(Sc2c(F)cc(C(=O)NO)cc2F)nnc1-c1ccc(CN2CCCCC2)o1	false (0)

Quick check: does "O=C(NO)c1cc(F)c(Sc2nnc(CN3CCCCC3)n2-c2ccc(F)cc2)c(F)c1" have residual percentage in rat plasma greater than or equal to 90%?
false (0)

Quick check: does "Cn1c(Sc2c(F)cc(C(=O)NO)cc2F)nnc1-c1cccc2ccccc12" have residual percentage in rat plasma greater than or equal to 90%?
false (0)

Quick check: does "CN(C)S(=O)(=O)c1ccc(F)c(-c2nnc(Sc3ccc(C(=O)NO)cc3)n2C)c1" have residual percentage in rat plasma greater than or equal to 90%?
true (1)

Quick check: does "O=C(NO)c1cc(F)c(Sc2nnc(-c3ccccn3)n2Cc2ccco2)c(F)c1" have residual percentage in rat plasma greater than or equal to 90%?
false (0)

Quick check: does "Cn1c(Sc2c(F)cc(C(=O)NO)cc2F)nnc1-c1cccnc1" have residual percentage in rat plasma greater than or equal to 90%?
false (0)

Quick check: does "O=C(NO)c1ccc(Cn2nnnc2-c2ccccn2)cc1" have residual percentage in rat plasma greater than or equal to 90%?
true (1)

Quick check: does "O=C(NO)c1ccc(Cc2nnc(-c3ccccc3)o2)cc1" have residual percentage in rat plasma greater than or equal to 90%?
false (0)

Quick check: does "O=C(NO)c1ccc(Cn2nnc(-c3ccccn3)n2)cc1" have residual percentage in rat plasma greater than or equal to 90%?
false (0)

Quick check: does "Cc1ccc(-c2cc(-c3nnc(Sc4ccc(C(=O)NO)cc4)n3C)c3ccccc3n2)cc1" have residual percentage in rat plasma greater than or equal to 90%?
true (1)

Quick check: does "CCN(CC)S(=O)(=O)c1cccc(-c2nnc(Sc3ccc(C(=O)NO)cc3)n2C)c1" have residual percentage in rat plasma greater than or equal to 90%?
false (0)

Quick check: does "COc1ccc(-c2nc(Cc3ccc(C(=O)NO)cc3)no2)cc1OC" have residual percentage in rat plasma greater than or equal to 90%?
false (0)

Quick check: does "CC1(C)CC(=O)c2c(S(C)(=O)=O)sc(-c3nnn(Cc4ccc(C(=O)NO)cc4)n3)c2C1" have residual percentage in rat plasma greater than or equal to 90%?
true (1)

Quick check: does "CN(C)S(=O)(=O)c1cccc(-c2nnc(Cc3ccc(C(=O)NO)cc3)o2)c1" have residual percentage in rat plasma greater than or equal to 90%?
false (0)

Quick check: does "COc1ccc(-c2nnnn2Cc2ccc(C(=O)NO)cc2)cc1OCc1ccccc1" have residual percentage in rat plasma greater than or equal to 90%?
false (0)

Quick check: does "O=C(NO)c1cc(F)c(Cn2nnnc2-c2ccc3ccccc3n2)c(F)c1" have residual percentage in rat plasma greater than or equal to 90%?
true (1)

Quick check: does "Cc1nc(N2CCOCC2)sc1-c1nnc(Cc2ccc(C(=O)NO)cc2)o1" have residual percentage in rat plasma greater than or equal to 90%?
true (1)

Quick check: does "O=C(NO)c1cc(F)c(Cn2nnnc2-c2ncccn2)c(F)c1" have residual percentage in rat plasma greater than or equal to 90%?
false (0)

Quick check: does "Nc1ccc(-c2nnn(Cc3ccc(C(=O)NO)cc3)n2)cc1" have residual percentage in rat plasma greater than or equal to 90%?
false (0)

Quick check: does "COc1ccc(Cc2nnc(Cc3ccc(C(=O)NO)cc3)o2)cc1OC" have residual percentage in rat plasma greater than or equal to 90%?
false (0)

Quick check: does "CN1CCN(Cc2ccc(-c3nnc(Sc4ccc(C(=O)NO)cc4)n3C)o2)CC1" have residual percentage in rat plasma greater than or equal to 90%?
false (0)

Quick check: does "O=C(NO)c1ccc(Cn2nnc(-c3nccc4ccccc34)n2)cc1" have residual percentage in rat plasma greater than or equal to 90%?
false (0)

Quick check: does "O=C(NO)c1cc(F)c(Sc2nnc(CN3CCCC3)n2Cc2ccccc2)c(F)c1" have residual percentage in rat plasma greater than or equal to 90%?
false (0)

Quick check: does "Cn1c(Sc2c(F)cc(C(=O)NO)cc2F)nnc1-c1ccc(CN2CCCCC2)cc1" have residual percentage in rat plasma greater than or equal to 90%?
false (0)

Quick check: does "O=C(NO)c1cc(F)c(Cn2nnc(-c3scc4c3OCCO4)n2)c(F)c1" have residual percentage in rat plasma greater than or equal to 90%?
true (1)

Quick check: does Cn1c(Sc2ccc(C(=O)NO)cc2)nnc1C1COc2ccccc2O1 (stereo not drawn) have residual percentage in rat plasma greater than or equal to 90%?
false (0)
